The compounds listed here are annotated with their MIC.
# Test system: Aspergillus fumigatus
# assay_info: Antimicrobial activity against Aspergillus fumigatus MTCC 3008 by broth microdilution method
# Type: functional
Dear colleague, please return just the value in µg/mL, with no unit written.

Cc1nn(-c2ccccc2)c(-n2ccnc2)c1-c1cc(-c2ccc(Br)cc2)nc(N)c1C#N :: 500

// switching to the query compound
query: What MIC appears in the records for this compound with Aspergillus fumigatus? "COC1=CC(=O)C[C@@H](C)[C@]12Oc1c(Cl)c(OC)cc(OC)c1C2=O"
result: 100

###

Quick reference: MIC of the listed items.
# Test system: Aspergillus fumigatus
# assay_info: Antimicrobial activity against Aspergillus fumigatus MTCC 3008 by broth microdilution method
# Format: functional
Just the number please, in µg/mL, no unit attached.

Check out these entries, answers already filled in.
Cc1cn(-c2c(-c3cc(-c4cc5ccccc5oc4=O)nc(N)c3C#N)c(C)nn2-c2ccccc2)cn1 :: 500
Cc1cn(-c2c(-c3cc(-c4ccc5c(c4)OC(C)(C)O5)nc(N)c3C#N)c(C)nn2-c2ccccc2)cn1 :: 1000

Turning to the following compound.
query: Entry "Cc1nn(-c2ccccc2)c(-n2ccnc2)c1-c1cc(-c2cc3ccccc3oc2=O)nc(N)c1C#N" has what MIC?
result: 1000

###

# assay_info: Antioxidant activity assessed as ferric ion reducing activity using fe3+-TPTZ at 200 mg/ml measured as ascorbic acid per 100 g sample by FRAP assay
# Assay type: physicochemical
Labelling: Activity reported below 400 mmol becomes Condition met; at or above becomes Condition not met.

Example entries begin here.
Cc1nn(-c2ccccc2)c(-n2ccnc2)c1-c1cc(-c2cccs2)nc(N)c1C#N :: Condition met
Cc1nn(-c2ccccc2)c(-n2ccnc2)c1-c1cc(-c2ccc(Br)cc2)nc(N)c1C#N :: Condition met
Cc1cn(-c2c(-c3cc(-c4ccc(Br)cc4)nc(N)c3C#N)c(C)nn2-c2ccccc2)cn1 :: Condition met

Next molecule, please.
query: Report whether reported Activity is lower than 400 mmol (strictly) for "Cc1nn(-c2ccccc2)c(-n2ccnc2)c1-c1cc(-c2ccccc2)nc(N)c1C#N"
result: Condition not met

###

MIC values, listed per item
# Tested on: Aspergillus fumigatus
# assay_info: Antimicrobial activity against Aspergillus fumigatus MTCC 3008 by broth microdilution method
# Format: functional
Reply numerically in µg/mL, unit not repeated.

Known MIC results, listed for orientation:
Cc1cn(-c2c(C=O)c(C)nn2-c2ccccc2)cn1 :: 500
Cc1nn(-c2ccccc2)c(-n2ccnc2)c1-c1cc(-c2ccc(-c3ccccc3)cc2)nc(N)c1C#N :: 500
Cc1cn(-c2c(-c3cc(-c4ccc(Cl)cc4)nc(N)c3C#N)c(C)nn2-c2ccccc2)cn1 :: 500
Cc1nn(-c2ccccc2)c(-n2ccnc2)c1-c1cc(-c2ccc(Cl)cc2)nc(N)c1C#N :: 500

The record that follows has no MIC shown yet.
query: For "Cc1cn(-c2c(-c3cc(-c4ccc(F)cc4)nc(N)c3C#N)c(C)nn2-c2ccccc2)cn1" , what is its reported MIC?
result: 1000

###

# assay_info: Antioxidant activity assessed as ferric ion reducing activity using fe3+-TPTZ at 200 mg/ml measured as ascorbic acid per 100 g sample by FRAP assay
# Assay type: physicochemical
experimental_endpoint: Activity (mmol)
Kindly provide the numeric value in mmol only, without the unit symbol.

Example entries and their recorded answers appear below.
Cc1nn(-c2ccccc2)c(-n2ccnc2)c1-c1cc(-c2ccc(F)cc2)nc(N)c1C#N :: 405.2
COc1ccc(-c2cc(-c3c(C)nn(-c4ccccc4)c3-n3ccnc3)c(C#N)c(N)n2)cc1 :: 400.22
Cc1cn(-c2c(-c3cc(-c4ccccc4)nc(N)c3C#N)c(C)nn2-c2ccccc2)cn1 :: 401.81

query: Entry "Cc1cn(-c2c(-c3cc(-c4ccc(F)cc4)nc(N)c3C#N)c(C)nn2-c2ccccc2)cn1" has what Activity?
result: 392.66
